Property: growth; scope: individual compounds
- Tested on: HOP-92 NSCLC
- assay remarks: NCI-60 one-dose screen, 48 h (100 = growth as untreated, 0 = no growth, -100 = all killed)
- conditions: 10 µM unless noted
Compounds without any hit were thinned out: in the full panel of roughly 83,000, 20% have a hit.
Please state the figure in %; there is no need to write the unit.

compound: COc1cc(/C=C/C(=O)c2ccc(Nc3nc(Nc4ccccc4)nc(Nc4ccc(Cl)cc4)n3)cc2)cc(OC)c1OC
growth, %: 1.92
--
compound: Cc1cc(C(c2ccccc2)c2ccccc2)ccc1NS(=O)(=O)c1ccccc1
growth, %: 95.8
--
compound: COc1cc2c(cc1OC)-c1ccc3cc4c(cc3c1N(CCCN(C)C)C2)OCO4
growth, %: 9.04
--
compound: O=C(Nc1ccccc1Cl)OCCN1CCOCC1
growth, %: 85.6
--
compound: O=C(/C=C/C12c3ccccc3C(c3ccccc31)C1C(=O)NC(=O)C12)c1ccc(Cl)cc1 (configuration not stated)
growth, %: -15.2
--
compound: O=c1cc(-c2ccc(OCc3ccccc3)cc2)oc2c(I)c(OCc3ccccc3)cc(OCc3ccccc3)c12
growth, %: 108
--
compound: CCn1c(Sc2nnc(NC(=O)CSC(=S)N3CCCCC3)s2)nc2c1c(=O)n(C)c(=O)n2C
growth, %: 81.1
--
compound: O=[N+]([O-])c1ccc(-c2cc3c(Nc4ccc(Sc5nc6ccccc6s5)c(Cl)c4)ncnc3s2)cc1
growth, %: 56.6
--
compound: CNC(=O)c1cc(Oc2ccc3nc(Nc4cc(Cl)cc(Cl)c4)ccc3c2)ccn1
growth, %: 67.6
--
compound: CC(C)N(CCOC(=O)Nc1ccccc1Cl)C(C)C
growth, %: 84.4

Recorded result, COc1cc2cc(Oc3ccc(NC(=O)Nc4cc(C(F)(F)F)cc(C(F)(F)F)c4)cc3)c(C)nc2cc1OCCN1CCCCC1 , growth: 42.2

Recorded result, C[C@@H]1CC[C@@H]2[C@@H]1[C@H](OC(=O)/C=C/c1ccccc1)[C@]1(CCCOCCOCCOCCOC(=O)CCCC[C@@H]3SC[C@@H]4NC(=O)N[C@@H]43)C[C@@H](OC(=O)CO)[C@@]2(C)O1 , growth: 108

Recorded result, CCOC(=O)c1c(C)nc2c(c1N)/C(=C/c1cc(OC)c(OC)c(OC)c1)C(=O)N2c1ccc(OC)cc1 , growth: 40.7

Recorded result, COc1ccc(/C=N/NC(=O)Cn2c(-c3ccc(S(C)(=O)=O)cc3)nc3cc(Cl)ccc32)cc1 , growth: 49.3

Recorded result, COc1ccc(-c2cc(-c3ccc(Nc4nc(Nc5ccccc5)nc(Nc5ccc(Cl)cc5)n4)cc3)nc(N)n2)cc1 , growth: 37.6

Recorded result, CCCCCCCCCCCCCCCCCC1=NCCN1C(=O)OCCO , growth: 56.5

Recorded result, C=C1c2c(C)nn(-c3ccc(O)cc3)c2N(C)C23C[C@@H]1C1(C)c4c(C)nn(-c5ccc(O)cc5)c4N(C)C(C)(C[C@H]12)C3 (some centres not stated) , growth: 7.18
